B1: Tesmin, residues 368 to 403; numbered along this chain, Q9Y4I5 (parent)
chain: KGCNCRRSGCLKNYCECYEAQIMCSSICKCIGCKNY

Variants of: B1
procedure.text: abundance fitness (aPCA) (normalised: wild type 0, dead -1); higher = more abundant; growth selection in yeast, the domain comes from the species named
experimental.conditions: Homo sapiens
outcome.measure: abundance fitness
Please give only the number in your answer, with no unit.

Find the measured abundance fitness of R6K and report it.
0.146

Return abundance fitness (reported value) for this variant: K29P
-0.091

Kindly indicate its recorded abundance fitness. Item: S26L
-0.559

Return reported abundance fitness. Input variant: C24W
-0.647

Output measured abundance fitness for this item: C17Q
-0.205

For the variant G32L , report abundance fitness.
-0.96

Tell me its abundance fitness given N4D as the entry.
0.22

Look up and report measured abundance fitness for this entry: G2Q
-0.17

Check the records and state abundance fitness for R7Q
0.282

Respond only with abundance fitness recorded for Y36N
0.02

Note down abundance fitness recorded for I22W
-0.365

Look up abundance fitness of C24A and report it.
-0.15

Hello, please tell me recorded abundance fitness for this one: I22G
0.268

For the variant I31N , give its reported abundance fitness.
0.083

Supply recorded abundance fitness for M23R here.
-0.075

State, in one line, measured abundance fitness of N4E
-0.056

Give a short answer stating reported abundance fitness for C10I .
-1.37

Fill in reported abundance fitness for this entry: C3G
-0.236

Indicate its recorded abundance fitness; the variant in question is E19A
-0.107

Give the measured abundance fitness for G2T
-0.439

Name the recorded abundance fitness of the item I22E in your answer.
0.004

Give me measured abundance fitness, please, for this variant: E19R
-0.188

For the variant K12Q , give its measured abundance fitness value.
-0.076

Output abundance fitness of C28R
-0.575

Recall and state the measured abundance fitness for E19K .
-0.1

Give abundance fitness for the following variant: K34N
0.06

Given the variant C15T , write its reported abundance fitness.
-0.382

Dear colleague, please send me the reported abundance fitness for I27V when you can.
0.112

Could you please provide reported abundance fitness for A20V ? Thanks!
-0.202

Provide measured abundance fitness value, entry: C15K
-0.295

Tell us which abundance fitness value is on record for I22S
-0.066

Give abundance fitness for R6C
0.036

Note down abundance fitness recorded for N13T
-0.297

Give the value of abundance fitness reported for the following: N35W
-0.233

Please give the documented abundance fitness of C15S
-0.596

Quote abundance fitness reported for C3M please.
-0.194

State its abundance fitness: I27S
0.009

Supply measured abundance fitness of N13F in your reply.
-0.613

Answer with reported abundance fitness of C28D
-0.3

Assign abundance fitness to the following record: M23H
-0.198

Give abundance fitness for N35T
-0.167

Look up and report measured abundance fitness for this entry: Y18H
-0.016

Identify measured abundance fitness associated with E16H
-0.418

Provide abundance fitness value for the following variant: Y14W
-0.01

Name the recorded abundance fitness of the item C5A in your answer.
-0.414

Give abundance fitness for the following variant: C33E
0.109

Return abundance fitness for the following variant: S26E
0.228

Check the records and state abundance fitness for G32V
-0.443

Answer with reported abundance fitness of E16M
-0.218

Give a short answer stating reported abundance fitness for S8L .
-0.106

Give recorded abundance fitness. Y36G
0.193

Tell me measured abundance fitness for K34A please.
0.185

Supply measured abundance fitness of C28A in your reply.
-0.248

Provide measured abundance fitness value, entry: Y36T
0.15

Kindly indicate its recorded abundance fitness. Item: K12E
0.031

Consider the variant G32W . State its measured abundance fitness.
-0.349

Consider the variant C3T and give its recorded abundance fitness.
-0.322

Respond only with abundance fitness recorded for R7A
0.248

Please report the measured abundance fitness for N4L
-0.207

Assign abundance fitness to the following record: G2P
0.07

Give the reported abundance fitness for this variant. N4P
-0.033

Give the reported value of abundance fitness for this record: Y14V
-0.082

Give the measured abundance fitness for S8A
-0.144

Answer with the recorded abundance fitness for the variant listed here: E16N
-0.763

Provide only the value of recorded abundance fitness for N35A
0.141

Specify measured abundance fitness for Y18S .
-0.059

Give a short answer stating reported abundance fitness for G9P .
-0.213

Tell me abundance fitness reported for S26F
-0.651

Identify abundance fitness associated with the variant C30G
-0.29

Please give the documented abundance fitness of N13Q
-0.061

Annotate the variant C17A with its measured abundance fitness.
-0.36

Kindly indicate its recorded abundance fitness. Item: E19V
-0.201

Give a short answer stating reported abundance fitness for M23K .
-0.057

Give abundance fitness for the following variant: K1D
-0.995

Tell me its abundance fitness given C33L as the entry.
-0.232

State its abundance fitness: E19T
-0.308

Give abundance fitness for E16C
-0.677

Return abundance fitness (reported value) for this variant: Q21R
0.061

Answer with reported abundance fitness of C15P
-0.259

For K12I , write its abundance fitness.
-0.405

Consider the variant C24P . State its measured abundance fitness.
-0.21

Dear colleague, please send me the reported abundance fitness for S26M when you can.
-0.384

Return value of abundance fitness for input E19P , no commentary.
-0.284

State its abundance fitness: S26Q
0.091
